This listing pairs binders with measured Kd.
Target: T1, recombinant human IL-6 (human, UniProt P05231 30-212)
T1 construct: Bought from R&D Systems (206-IL-010); Biotinylated or coupled to beads in some assays; also called hIL-6; rhIL-6
T1 sequence (P05231 30-212 limits assumed): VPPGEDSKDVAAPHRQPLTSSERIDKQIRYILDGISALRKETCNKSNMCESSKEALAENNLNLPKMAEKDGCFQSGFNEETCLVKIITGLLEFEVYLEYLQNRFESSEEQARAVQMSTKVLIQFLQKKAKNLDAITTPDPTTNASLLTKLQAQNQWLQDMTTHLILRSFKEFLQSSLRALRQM
Experiment: KinExA 3000, equilibrium in solution, IgG at 1 pM with serially diluted human IL-6, 20 C

{"binder": "AME-22a (antibody, V domains shown, Tested as IgG; also called 150) VH: EVQLVESGGGLVQPGGSLRLSCAASGFQFSPFAMSWVRQAPGKGLEWVAKISPGGSWTYYPDTDTGRFTISRDNAKNSLYLQMNSLRAEDTAVYYCARQLWGYYALDFWGQGTTVTVSS VL: EIVLTQSPATLSLSPGERATLSCSASYSVSYMYWYQQKPGQAPRLLIYDFSNLASGIPARFSGSGSGTDFTLTISSLEPEDFAVYYCMQWSGYPYTFGGGTKVEIK", "unit label": "pM", "Kd": 0.18}
{"binder": "AME-20b (antibody, V domains shown, Tested as IgG; also called 140) VH: EVQLVESGGGLVQPGGSLRLSCAASGFQFSSFAMSWVRQAPGKGLEWVAKISPGGSYTYYSDTVTGRFTISRDNAKNSLYLQMNSLRAEDTAVYYCARQLWGYYALDIWGQGTTVTVSS VL: EIVLTQSPATLSLSPGERATLSCSASISVSYMYWYQQKPGQAPRLLIYDMSNLASGIPARFSGSGSGTDFTLTISSLEPEDFAVYYCMQWSGYPYTFGGGTKVEIK", "unit label": "pM", "Kd": 0.78}
{"binder": "AME-23a (antibody, V domains shown, Tested as IgG; also called 143) VH: EVQLVESGGGLVQPGGSLRLSCAASGFQFSSFAMSWVRQAPGKGLEWVAKISPGGSYTYYSDTVTGRFTISRDNAKNSLYLQMNSLRAEDTAVYYCARQLWGYYALDFWGQGTTVTVSS VL: EIVLTQSPATLSLSPGERATLSCSASYSVSYMYWYQQKPGQAPRLLIYDMSNLASGIPARFSGSGSGTDFTLTISSLEPEDFAVYYCMQWSGYPYTFGGGTKVEIK", "unit label": "pM", "Kd": 0.006}
{"binder": "AME-16 (antibody, V domains shown, Tested as IgG; also called AME-A16; 106) VH: EVQLVESGGGLVQPGGSLRLSCAASGFTFSSFAMSWVRQAPGKGLEWVAKISPGGSYTYYPDTVTGRFTISRDNAKNSLYLQMNSLRAEDTAVYYCARQLWGYYALDYWGQGTTVTVSS VL: EIVLTQSPATLSLSPGERATLSCSASSSVSYMYWYQQKPGQAPRLLIYDTSNLASGIPARFSGSGSGTDFTLTISSLEPEDFAVYYCSQWSGYPYTFGGGTKVEIK", "unit label": "pM", "Kd": 0.83}
